Assay system: T1, recombinant human activated Factor VII (FVIIa) (human, UniProt P08709 61-212; P08709 213-466, ten glutamate residues of the Gla domain may be gamma-carboxylated)
T1 construct: chains tethered by a disulfide bond; also called Factor VIIa; rFVIIa
T1 sequence 1: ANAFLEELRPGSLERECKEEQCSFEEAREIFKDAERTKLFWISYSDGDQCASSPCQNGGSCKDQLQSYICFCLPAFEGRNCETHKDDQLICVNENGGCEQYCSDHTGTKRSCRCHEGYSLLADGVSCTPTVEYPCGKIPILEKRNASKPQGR
T1 sequence 2: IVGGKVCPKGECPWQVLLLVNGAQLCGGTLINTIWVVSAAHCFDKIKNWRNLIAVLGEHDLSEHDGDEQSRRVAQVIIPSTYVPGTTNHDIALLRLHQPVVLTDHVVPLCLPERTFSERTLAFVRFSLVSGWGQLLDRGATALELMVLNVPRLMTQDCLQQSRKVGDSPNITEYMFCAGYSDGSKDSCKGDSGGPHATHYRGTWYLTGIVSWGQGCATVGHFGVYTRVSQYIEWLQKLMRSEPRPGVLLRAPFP
Protocol description: BLI (Fortebio)
Hi there, I'd appreciate the recorded Kd for every entry that follows.

GET /values?readout=Kd&item= VH SEQ ID NO 602 / VL SEQ ID NO 454 (antibody, IgG4, V domains shown, humanized 11F2; IgG4 S228P/kappa) VH: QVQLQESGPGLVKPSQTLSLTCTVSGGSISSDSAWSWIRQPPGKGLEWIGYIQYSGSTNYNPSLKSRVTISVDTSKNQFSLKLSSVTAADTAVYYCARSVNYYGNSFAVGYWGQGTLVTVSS VL: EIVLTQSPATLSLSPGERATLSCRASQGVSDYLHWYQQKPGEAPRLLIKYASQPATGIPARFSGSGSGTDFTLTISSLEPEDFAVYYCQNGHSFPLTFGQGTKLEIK 13 nM

GET /values?readout=Kd&item= VH SEQ ID NO 514 / VL SEQ ID NO 430 (antibody, IgG4, V domains shown, humanized 11F2; IgG4 S228P/kappa) VH: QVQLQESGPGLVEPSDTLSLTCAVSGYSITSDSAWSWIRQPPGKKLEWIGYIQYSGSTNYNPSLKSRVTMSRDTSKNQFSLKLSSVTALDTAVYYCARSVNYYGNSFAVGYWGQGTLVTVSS VL: EIVLTQSPATLSLSPGERATLSCRASQGVSDYLAWYQQKPGQAPRLLIKYASQPATGIPARFSGSGSGTDFTLTISSLEPEDFGVYYCQNGHSFPLTFGQGTKLEIK 7.1 nM

GET /values?readout=Kd&item= VH SEQ ID NO 570 / VL SEQ ID NO 326 (antibody, IgG4, V domains shown, humanized 11F2; IgG4 S228P/kappa) VH: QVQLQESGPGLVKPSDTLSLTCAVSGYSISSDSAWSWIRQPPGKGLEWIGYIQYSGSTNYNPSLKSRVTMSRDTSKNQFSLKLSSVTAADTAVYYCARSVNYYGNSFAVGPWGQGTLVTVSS VL: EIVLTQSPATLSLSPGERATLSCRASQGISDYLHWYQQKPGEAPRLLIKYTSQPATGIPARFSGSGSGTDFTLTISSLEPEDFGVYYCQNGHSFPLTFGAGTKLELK 0.55 nM
